Molecular target: human P2X3 receptor (Homo sapiens)
Sequence (P56373 1-397): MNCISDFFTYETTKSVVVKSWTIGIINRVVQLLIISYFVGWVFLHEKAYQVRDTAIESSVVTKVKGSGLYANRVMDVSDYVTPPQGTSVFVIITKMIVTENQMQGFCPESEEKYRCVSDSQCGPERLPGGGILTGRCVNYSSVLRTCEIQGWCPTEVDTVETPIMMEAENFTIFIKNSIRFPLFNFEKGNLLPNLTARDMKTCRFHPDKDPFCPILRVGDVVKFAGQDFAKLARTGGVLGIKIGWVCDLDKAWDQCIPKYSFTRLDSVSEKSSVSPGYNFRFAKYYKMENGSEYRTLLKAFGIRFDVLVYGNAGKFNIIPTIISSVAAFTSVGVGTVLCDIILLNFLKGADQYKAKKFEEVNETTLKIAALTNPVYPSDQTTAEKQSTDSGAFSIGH
Assay: Intracellular calcium measurement, antagonist activity at human P2X3 receptors (hP2X3 1321N1), Fluo8
Format: cell-based
Set-up: expressed in transfected cells; host or cells: human astrocytoma 1321N1 (1312N1 [sic])
Details: column 3); 1321N1 cells, human P2X3, Fluo8, agonist ATP at EC50
Measured IC50 values are reported for all entries that follow.
Quick note: give the figure in nM, leave out the unit.

Reference set (6 entries):
What reported IC50 corresponds to `CC(C)N1Cc2c(n(CC(=O)Nc3ccc(F)cn3)c3cc(NC(=O)C4CCOCC4)nn3c2=O)C1=O` on human P2X3 receptor (Homo sapiens)?
47

What reported IC50 corresponds to CCc1cc2n(CC(=O)Nc3ccc(F)cn3)c3c(c(=O)n2n1)CN(CC1CCOC1)C3=O (stereo not shown) on human P2X3 receptor (Homo sapiens)?
437

What reported IC50 corresponds to `COC[C@H](C)N1Cc2c(n(CC(=O)Nc3ccc(F)cn3)c3cc(C(=O)N4CCCCC4)nn3c2=O)C1=O` on human P2X3 receptor (Homo sapiens)?
16

What reported IC50 corresponds to `CCc1cc2n(CC(=O)Nc3ccc(F)cn3)c3c(c(=O)n2n1)CN(Cc1ccncc1)C3=O` on human P2X3 receptor (Homo sapiens)?
46

What reported IC50 corresponds to `COC[C@H](C)N1Cc2c(n(CC(=O)Nc3ccc(F)cn3)c3cc(NC4CCCC4)nn3c2=O)C1=O` on human P2X3 receptor (Homo sapiens)?
2

What reported IC50 corresponds to CCc1cc2n(CC(=O)Nc3ccc(F)cn3)c3c(c(=O)n2n1)CN(CC1CCNC1)C3=O.Cl (stereo not shown) on human P2X3 receptor (Homo sapiens)?
650

// next entry
What reported IC50 corresponds to COCC(C)N1Cc2c(n(CC(=O)Nc3ccc(F)cn3)c3cc(C(=O)N(C)C)nn3c2=O)C1=O (racemic) on human P2X3 receptor (Homo sapiens)?
115
